Just for reference, patent US20130071931A1 is where these values come from.

# Test system: human induced hepatic stem cells NGC1-1
# Assay name: Quantitative RT-PCR, differentiation with TGF-β signaling inhibitors (Example 11)
# Type: cell-based
# Setup conditions: cell samples Nos. 1141-1145: 0.5 μM inhibitor in ReproStem + 10 ng/mL aFGF, no feeder cells, Matrigel, 7 days after seeding; No. 1133 taken as 1
Here the recorded AAT expression ratio is given for each entry.
Answer with a number only.

[[record]]
compound = "Cc1cccc(-c2n[nH]cc2-c2ccc3ncccc3n2)n1 [compound 616451]"
assay_system = "human induced hepatic stem cells NGC1-1"
result_value = 13.45

[[record]]
compound = "NC(=O)c1ccc(-c2nc(-c3ccc4c(c3)OCO4)c(-c3ccccn3)[nH]2)cc1"
assay_system = "human induced hepatic stem cells NGC1-1"
result_value = 12.15

[[record]]
compound = "Cc1cccc(-c2n[nH]cc2-c2ccc3ncccc3n2)n1 [compound 616452]"
assay_system = "human induced hepatic stem cells NGC1-1"
result_value = 22.18


We now examine a further compound.
Fill blank: measured AAT expression ratio of the compound `c1ccc(-c2n[nH]cc2-c2ccnc3ccccc23)nc1` is ____.
14.36
